Where these numbers come from: patent US20230303681A1

target: T1, human TMEM106B (human, UniProt Q9NUM4 2-274); experiment: FACS A549, 1 ug/ml
T1 construct: Full-length, on transiently transfected HEK293 cells, or natively expressed on HeLa, U251 and A549 cells; also called huTMEM106B; huTMEM
reported metric: MFI

anti-TMEM106B antibody TM-24 (antibody, V domains shown, mouse IgG from hybridoma) VH: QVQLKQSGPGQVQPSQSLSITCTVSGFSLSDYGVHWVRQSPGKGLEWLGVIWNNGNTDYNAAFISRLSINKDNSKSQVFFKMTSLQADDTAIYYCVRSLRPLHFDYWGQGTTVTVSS VL: DIVMTQSPSSLTMSVGQKVTMNCKSSQSLLNSNNQQNYLAWYQQKPGQSPKLLVYFASIRESGVPDRFIGSGSGTDFTLTINSVQAEDLADYFCQQHYSTPFTFGSGTKLEIR: 2880

Then this binder:
(Q) Look up and state reported MFI for anti-TMEM106B antibody TM-3 (antibody, V domains shown) VH: QVTLKESGPGIVQPSQTLSLTCSFSGFSLNTLGRGVGWIRQPSGKGLEWLAKIWWNDDKFYYPALKSRLTISKDTSKNQIFLKIANVDTADSATYYCARIAGGTGAAYWGQGTTLTVSS VL: DIVMTQAAFSNPVTLGTSASISCRSSKSLLHSNGITYLYWYLQKPGQSPQLLISQMSSLASGVPDRFSSGGSGTDFTLRISRVEAEDVGVFYCAQNLELPWTFGGGTKLELK
(A) 4840
